- targetOrTestSystem: T1, 4H2608-AA
- T1 chain: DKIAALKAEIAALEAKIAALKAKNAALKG
- testMethodNotes: two-hybrid library CCmax;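 note: natural log of median RNA to DNA barcode read ratio; higher means stronger binding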
- measurementConditions: mean of both orientations
reportedProperty: interaction score

I: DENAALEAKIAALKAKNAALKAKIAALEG [4H1405-AA]
II: DENAALEAEIAALKAEIAALKAKNAALEG [4H1103-AA]
III: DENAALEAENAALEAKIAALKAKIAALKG [4H1198-AA]
I'd appreciate it if you could rank the binders mentioned above by interaction score, largest value first. To answer, arrange all of the labels according to the requested order.
III, II, I
